# TEST_DETAILS: Antiplatelet activity in human platelet rich plasma assessed as inhibition of ADP-induced platelet aggregation relative to AZD-6140
# Format: functional
Answer each item with its documented fold change (FC).
Numbers only.

Worked cases, fold change (FC) given:
| MOLECULE | fold change (FC) |
| --- | --- |
| CCCCCOC(=O)N1CCN(C(=O)[C@H](CCC(=O)O)NC(=O)c2cc(N3CC[C@@H](C(=O)N4CCCC4)C3)cc(-c3ccccc3)n2)CC1 | 1.7 |
| CCCCCOC(=O)N1CCN(C(=O)[C@H](CCC(=O)O)NC(=O)c2cc(N3CCCC(CNC(C)=O)C3)cc(-c3ccccc3)n2)CC1 (some centres not stated) | 3.4 |
| CCCOC(=O)N1CCN(C(=O)[C@H](CCC(=O)O)NC(=O)c2cc(N3CCC(C(=O)N(CC)CC)CC3)cc(-c3ccccc3)n2)CC1 | 2.3 |

Give fold change (FC) for each of the items listed below.
1. CCCCCOC(=O)N1CCN(C(=O)[C@H](CCC(=O)O)NC(=O)c2cc(N3CCCC(N4CCCC4)C3)cc(-c3ccccc3)n2)CC1 (some centres not stated)
2. CCCCOC(=O)N1CCN(C(=O)[C@H](CCC(=O)O)NC(=O)c2cc(N3CCC(CNCC)CC3)cc(-c3ccccc3)n2)CC1
3. CCCCCOC(=O)N1CCN(C(=O)[C@H](CCC(=O)O)NC(=O)c2cc(N3CCC(CCOC)CC3)cc(-c3ccccc3)n2)CC1
4. CCCCCOC(=O)N1CCN(C(=O)[C@H](CCC(=O)O)NC(=O)c2cc(N3CCC[C@H](O)C3)cc(-c3ccccc3)n2)CC1

Result:
3.3
1.4
3.5
3.7
